Data origin: patent US20250188151A1

# Tested On: T1, cJun bZIP (human, UniProt P05412 252-308, limits assumed)
# T1 chain: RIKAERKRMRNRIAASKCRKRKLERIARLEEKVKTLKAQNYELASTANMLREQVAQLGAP
# Assay Procedure: cell-based or functional assay
Measured Endpoint: IC50 CD (µM)
Respond with the bare value in µM.

// lookup IC50 CD for Ac-LVVEEDVLEEEIEQLEERNYALRKEIEDLQKQLEDL-NH2 (Synthetic, NΔ24 CΔ3; also called linear form of 9/10) [HingeW variant peptide 9]
94.6

// lookup IC50 CD for Ac-EAEELVVEEDVLEEEIEQLEERNYALRKEIKDLQDQ-NH2 (Synthetic, NΔ20 CΔ7; also called linear form of 22/23) [HingeW peptide variant 22]
101

// lookup IC50 CD for Ac-KEAEDLVVEEDVLEEEIEQLEERNYALRKEIKDLQDQ-NH2 (lactam (positions not given here); also: one i to i+4 K-D lactam bridge, pair not given here, Synthetic, NΔ19 CΔ7; also called cyclised form of 12/13) [HingeW variant peptide 13]
92.5

// lookup IC50 CD for Ac-EAEELVVEEDVLEEEIEQLEEKNKALKDEIEDLY-NH2 [HingeW variant peptide 26]
1560
